assay: Therapeutic index, ratio of CC50 for cytotoxicity against IL2 independent FL-4 cells to EC50 for antiviral activity against Feline immunodeficiency virus infected in IL2 independent FL-4 cells; type: toxicity, cell-based; conditions: cat; read-out: Ratio CC50/EC50
For each of the compounds below, state its selectivity ratio.
Hey, just send me the number, nothing else.

[ask] Output selectivity ratio of Clc1nss/c1=N\c1nccs1
[reply] 1.6

[ask] Output selectivity ratio of Clc1nss/c1=N\c1cccc(Br)n1
[reply] 92

[ask] Output selectivity ratio of Clc1nss/c1=N\c1cc(-c2ccccc2)n[nH]1
[reply] 9.2

[ask] Output selectivity ratio of Clc1nss/c1=N\c1ccccn1
[reply] 105

[ask] Output selectivity ratio of Clc1nss/c1=N\c1ccc(OCc2ccccc2)cc1
[reply] 1.9

[ask] Output selectivity ratio of Clc1ccccc1/N=c1\ssnc1Cl
[reply] 2.6

[ask] Output selectivity ratio of CCOc1cccnc1/N=c1\ssnc1Cl
[reply] 90

[ask] Output selectivity ratio of Clc1nss/c1=N\c1ccc(I)cc1
[reply] 129

[ask] Output selectivity ratio of CSc1ccc(/N=c2\ssnc2Cl)cc1
[reply] 2.4

[ask] Output selectivity ratio of COc1cccnc1/N=c1\ssnc1Cl
[reply] 21

[ask] Output selectivity ratio of Cc1cc(/N=c2\ssnc2Cl)n[nH]1
[reply] 600

[ask] Output selectivity ratio of Clc1nss/c1=N\c1ccccc1Br
[reply] 3.3

[ask] Output selectivity ratio of Clc1ccc(/N=c2\ssnc2Cl)cc1
[reply] 79

[ask] Output selectivity ratio of Fc1ccc(F)c(/N=c2\ssnc2Cl)c1
[reply] 131
